Target: T1, GAL4 activation domain fusion (ACT) to HAB1 (UniProt Q9CAJ0 23-511, limits assumed)
T1 construct: pACT-HAB1 fusion in yeast reporter strains; also called pACT-HAB1
T1 sequence (looked up): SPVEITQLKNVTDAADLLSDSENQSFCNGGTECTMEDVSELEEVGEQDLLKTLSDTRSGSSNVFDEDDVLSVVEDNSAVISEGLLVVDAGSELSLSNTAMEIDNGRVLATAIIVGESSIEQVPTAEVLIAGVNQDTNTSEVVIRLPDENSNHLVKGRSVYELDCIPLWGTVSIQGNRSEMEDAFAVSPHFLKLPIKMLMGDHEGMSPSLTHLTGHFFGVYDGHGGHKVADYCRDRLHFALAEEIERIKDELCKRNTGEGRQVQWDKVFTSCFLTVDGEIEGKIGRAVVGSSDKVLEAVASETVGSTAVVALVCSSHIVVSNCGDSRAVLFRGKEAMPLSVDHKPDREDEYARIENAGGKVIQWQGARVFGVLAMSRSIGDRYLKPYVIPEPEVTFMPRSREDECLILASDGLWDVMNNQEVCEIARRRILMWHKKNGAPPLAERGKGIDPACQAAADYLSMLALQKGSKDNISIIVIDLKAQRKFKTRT
Experiment: yeast two-hybrid, X-gal; lowest benoxacor concentration giving signal
resultType: Threshold (µM)
Just the number please, in µM, no unit attached.

Some solved entries appear below for comparison.
PYR1^K59R,F159V (receptor, not shown: small tags and cut ends, pBD-PYR1 fusion in yeast) MPSELTPEERSELKNSIAEFHTYQLDPGSCSSLHAQRIHAPPELVWSIVRRFDKPQTYRHFIKSCSVEQNFEMRVGCTRDVIVISGLPANTSTERLDILDDERRVTGFSIIGGEHRLTNYKSVTTVHRFEKENRIWTVVLESYVVDMPEGNSEDDTRMVADTVVKLNLQKLATVAEAMARNSGDGSGSQVT :: 100
PYR1^K59R,S92W (receptor, pBD-PYR1 fusion in yeast) MPSELTPEERSELKNSIAEFHTYQLDPGSCSSLHAQRIHAPPELVWSIVRRFDKPQTYRHFIKSCSVEQNFEMRVGCTRDVIVISGLPANTWTERLDILDDERRVTGFSIIGGEHRLTNYKSVTTVHRFEKENRIWTVVLESYVVDMPEGNSEDDTRMFADTVVKLNLQKLATVAEAMARNSGDGSGSQVT :: 50

Let's switch to this binder now.
-- ask Entry PYR1^K59R,S92I (receptor, pBD-PYR1 fusion in yeast) MPSELTPEERSELKNSIAEFHTYQLDPGSCSSLHAQRIHAPPELVWSIVRRFDKPQTYRHFIKSCSVEQNFEMRVGCTRDVIVISGLPANTITERLDILDDERRVTGFSIIGGEHRLTNYKSVTTVHRFEKENRIWTVVLESYVVDMPEGNSEDDTRMFADTVVKLNLQKLATVAEAMARNSGDGSGSQVT has what Threshold?
-- reply 50

Entry source: patent US20160115500A1
